# Test Method Notes: Acute toxicity test in ICR mice
# Format: in vivo
# Protocol Conditions: mouse, in vivo, intraperitoneal; ICR mice, abdominal cavity, 24 hours; read-out: acute toxicity LD 50
Measured Quantity: LD50 at 24 h (mg/kg)
Express your answer in mg/kg, writing the number without its unit.

In plain terms, O=C(NC1=CC(=O)C2OC2C1O)c1ccccc1O (stereo not shown) has a documented LD50 at 24 h of 188
